- method: gradient 5% acetonitrile 3 min, to 50% in 2 min, to 85% in 15 min, held 3 min, 100 µL/min
- conditionSummary: column: Zorbax Extend-C18 2.1 x 50 mm; eluents: water / acetonitrile, 0.1% formic acid
readoutLabel: RP-LC retention time (s)

molSmiles | number
CCN1c2ccccc2C(=O)NC12CCN(C(=O)Cc1ccc(C)cc1)CC2 | 823
O=C(Cn1cnc2nc3c(cc2c1=O)CCCC3)Nc1cccc(C(F)(F)F)c1 | 823
COc1ccc(OC)c(CNC(=O)Cc2nnc(-c3cccc(Br)c3)o2)c1 | 796
O=C(c1ccccc1Cl)N1CCN(c2cc(-c3ccccc3)[nH]n2)CC1 | 804

###

- method: gradient 5% acetonitrile 3 min, to 50% in 2 min, to 85% in 15 min, held 3 min, 100 µL/min
- conditionSummary: column: Zorbax Extend-C18 2.1 x 50 mm; eluents: water / acetonitrile, 0.1% formic acid
readoutLabel: RP-LC retention time (s)

molecule | resultUnits | RP-LC retention time
COc1ccc(C(=O)N2CCC3(C2)C(=O)N(C)c2ccccc23)c(OC)c1 (stereo not drawn) | s | 759

A = O=C(NCCN1CCCC1)c1cccc(-c2ccc(N3CCCCCC3)nc2)c1
B = Cc1nc(-c2csc(S(=O)(=O)N3CCC(C(=O)Nc4ccc(C(C)C)cc4)CC3)c2)no1
Ask: # query: argmin of RP-LC retention time over A and B Your answer should be the label of the entry you select.
Reply: A
(A: 574 s, B: 1090 s)

###

- method: gradient 5% acetonitrile 3 min, to 50% in 2 min, to 85% in 15 min, held 3 min, 100 µL/min
- conditionSummary: column: Zorbax Extend-C18 2.1 x 50 mm; eluents: water / acetonitrile, 0.1% formic acid
readoutLabel: RP-LC retention time (s)

Example cases with answers are listed next.
compound | number
Cc1cc(C(=O)Nc2cccc(Cl)c2)nc2cc(-c3ccco3)nn12 | 1020
CCOC(=O)c1sc2ncnc(N3CCc4ccccc4C3)c2c1C | 1310
O=C(NOCC1CC1)c1cc(Br)c(F)c(F)c1Nc1ccc(I)cc1Cl | 1170
CCN1CCN(c2ncc(C(=O)OC)c3ccccc23)CC1 | 604

A = O=C(NCc1ccc(F)cc1)NCc1cccn1Cc1cccc(F)c1
B = Cc1ccc(Cn2c(=O)c(N3CCN(C(=O)NCc4ccco4)CC3)nc3ccccc32)cc1
Ask: Hi team, can someone confirm which has the larger RP-LC retention time: A or B ? Thanks. Your answer should be the label of the entry you select.
Reply: B

###

- method: gradient 5% acetonitrile 3 min, to 50% in 2 min, to 85% in 15 min, held 3 min, 100 µL/min
- conditionSummary: column: Zorbax Extend-C18 2.1 x 50 mm; eluents: water / acetonitrile, 0.1% formic acid
readoutLabel: RP-LC retention time (s)

P = O=C(NCc1cccc(F)c1)C1CCN(c2cnc3nccnc3c2)CC1
Q = Cc1ccc(C)c(S(=O)(=O)N2CCc3c(c(-c4nnc(-c5ccc(F)cc5)o4)nn3C)C2)c1
Ask: Hi team, can someone confirm which has the larger RP-LC retention time: P or Q ? Thanks. Your answer should be the label of the entry you select.
Reply: Q

1 = Cc1ccc(-c2cn3c(CC(=O)NCCC4=CCCCC4)csc3n2)cc1C
2 = COc1ccccc1NC(=O)Oc1cccc(OC(=O)c2ccccc2)c1
Ask: Hi team, can someone confirm which has the larger RP-LC retention time: 1 or 2 ? Thanks. Your answer should be the label of the entry you select.
Reply: 1

Data provenance is the METLIN SMRT retention time set (Domingo-Almenara et al. 2019).
